MEASURED ON: Tb-labeled inactive PDGFRβ (Homo sapiens (Human), UniProt P09619)
Sequence (P09619 33-1106): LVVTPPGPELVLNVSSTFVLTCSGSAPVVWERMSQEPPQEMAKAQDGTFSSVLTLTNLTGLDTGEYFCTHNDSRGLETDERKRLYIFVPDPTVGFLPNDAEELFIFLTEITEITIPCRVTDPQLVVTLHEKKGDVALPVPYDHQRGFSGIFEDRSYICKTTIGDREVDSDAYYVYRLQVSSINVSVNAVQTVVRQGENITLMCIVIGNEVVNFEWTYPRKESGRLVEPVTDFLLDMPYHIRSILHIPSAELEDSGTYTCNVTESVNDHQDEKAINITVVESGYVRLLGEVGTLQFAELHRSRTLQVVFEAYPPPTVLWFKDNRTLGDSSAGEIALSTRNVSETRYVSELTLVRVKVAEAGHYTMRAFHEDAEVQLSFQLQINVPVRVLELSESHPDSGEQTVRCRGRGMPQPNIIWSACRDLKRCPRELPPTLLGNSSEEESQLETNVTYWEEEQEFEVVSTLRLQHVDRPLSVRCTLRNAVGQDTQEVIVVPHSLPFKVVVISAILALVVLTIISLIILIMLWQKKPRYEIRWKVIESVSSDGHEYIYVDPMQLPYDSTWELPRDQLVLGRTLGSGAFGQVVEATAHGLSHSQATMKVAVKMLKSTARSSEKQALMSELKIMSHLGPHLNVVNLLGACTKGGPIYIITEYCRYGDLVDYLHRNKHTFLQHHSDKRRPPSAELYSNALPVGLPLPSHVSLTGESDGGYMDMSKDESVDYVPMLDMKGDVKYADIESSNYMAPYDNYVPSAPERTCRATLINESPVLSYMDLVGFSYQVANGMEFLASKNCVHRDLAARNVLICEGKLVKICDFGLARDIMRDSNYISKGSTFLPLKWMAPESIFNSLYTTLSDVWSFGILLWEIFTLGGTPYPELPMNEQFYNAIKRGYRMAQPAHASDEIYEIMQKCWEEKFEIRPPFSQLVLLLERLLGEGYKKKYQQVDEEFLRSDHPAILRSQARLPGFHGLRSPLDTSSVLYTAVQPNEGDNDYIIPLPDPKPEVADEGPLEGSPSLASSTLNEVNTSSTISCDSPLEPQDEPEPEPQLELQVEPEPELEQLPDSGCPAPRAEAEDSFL
PROCEDURE SUMMARY: PDGFRβ LanthaScreen Assay
RECORDED CONDITIONS: read-out: PDGFR Lantha IC50
pIC50: −log10 of the molar value.

| COMPOUND | pIC50 |
| --- | --- |
| Cc1ncc(NC(=O)CN2CC(C)(C)C2)cc1NC(=O)c1cnn2cc(-c3ccc(C4(O)COC4)cc3)sc12 | 8.85 |
| Cc1ncc(NC(=O)CN2CCCCC2)cc1NC(=O)c1cnn2cc(-c3cnn4c3OCCC4)sc12 | 8.55 |
| Cc1ncc(NC(=O)CCN2CC(C)(C)C2)cc1NC(=O)c1cnn2cc(-c3cnn(C)c3)sc12 | 7.55 |
| Cc1ncc(NC(=O)CN2CC(C)(C)C2)cc1NC(=O)c1cnn2cc(-c3cnn(C)c3C)sc12 | 8.66 |
| Cc1ncc(NC(=O)C[C@@H]2CCCCN2C(C)C)cc1NC(=O)c1cnn2cc(-c3cnn(C)c3)sc12 | 7.24 |
| COCCn1cc(-c2cn3ncc(C(=O)Nc4cc(NC(=O)CCN5C[C@@H]6CC[C@H]5C6)cnc4C)c3s2)cn1 | 8.14 |
| Cc1ncc(NC(=O)C[C@H]2CCCN2C(C)C)cc1NC(=O)c1cnn2cc(-c3cnn4c3OCCC4)sc12 | 8.51 |
| Cc1ncc(C(=O)NCCNC2CCC2)cc1NC(=O)c1cnn2cc(-c3cnn4c3CCC4)sc12 | 8.31 |
| COCCn1cc(-c2cn3ncc(C(=O)Nc4cc(NC(=O)CCC5CCCN5C(C)C)cnc4C)c3s2)cn1 (stereo not drawn) | 7.96 |
| CC[C@H]1CN(CC(=O)Nc2cnc(C)c(NC(=O)c3cnn4cc(-c5cccnc5OC)sc34)c2)CCO1 | 8.89 |
| COCCn1cc(-c2cn3ncc(C(=O)Nc4cc(NC(=O)CN5CCC[C@H]5C)cnc4C)c3s2)cn1 | 8.02 |
| Cc1ncc(C(=O)NCCN2CCCC23CCC3)cc1NC(=O)c1cnn2cc(-c3cn(C)nc3C)sc12 | 8.72 |
| Cc1ncc(NC(=O)CN2CCOC[C@@H]2C)cc1NC(=O)c1cnn2cc(-c3cnn(C)c3)sc12 | 7.62 |
| Cc1cc(C(=O)NCCN2CCCC2(C)C)sc1NC(=O)c1cnn2cc(-c3ccncc3)sc12 | 5.93 |
| COc1ncccc1-c1cn2ncc(C(=O)Nc3cc(C(=O)NCCN4CCCC4)cnc3C)c2s1 | 8.80 |

// data source = patent US20240109917A1
